Attribution: patent US11795460B2

System: TTR
Experiment: TTR editing in HepG2 cells transfected with Spy Cas9 mRNA and dgRNAs (Table 6)
Assay type: cell-based, human
Details: HepG2 cells co-transfected with Spy Cas9 mRNA (SEQ ID NO:2) and dgRNAs
Each entry falls in a class defined on Avg % Deletion; the bands are class 1 (below 2%), class 2 (2% to below 5%), class 3 (5% or more)

- sequence_code: "AGUGAGUCUGGAGAGCUGCA (tested as dual guide RNA, chemistry not given here) [CR003359]"
  assigned_class: "class 3"
- sequence_code: "CACAUGCACGGCCACAUUGA (tested as dual guide RNA, chemistry not given here) [CR003350]"
  assigned_class: "class 2"
- sequence_code: "CCUCCUCUGCCUUGCUGGAC (tested as dual guide RNA, chemistry not given here) [CR003336]"
  assigned_class: "class 1"
- sequence_code: "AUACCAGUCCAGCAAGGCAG (tested as dual guide RNA, chemistry not given here) [CR003338]"
  assigned_class: "class 2"
- sequence_code: "GCUGCAUGGGCUCACAACUG (tested as dual guide RNA, chemistry not given here) [CR003361]"
  assigned_class: "class 2"
- sequence_code: "UGUAGAAGGGAUAUACAAAG (tested as dual guide RNA, chemistry not given here) [CR003365]"
  assigned_class: "class 3"
- sequence_code: "UGUCUGUCUUCUCUCAUAGG (tested as dual guide RNA, chemistry not given here) [CR005307]"
  assigned_class: "class 3"
- sequence_code: "GCGGCGGGGGCCGGAGUCGU (tested as dual guide RNA, chemistry not given here) [CR003374]"
  assigned_class: "class 1"
- sequence_code: "CAGAGGACACUUGGAUUCAC (tested as dual guide RNA, chemistry not given here) [CR003343]"
  assigned_class: "class 3"
- sequence_code: "CCAGUCCAGCAAGGCAGAGG (tested as dual guide RNA, chemistry not given here) [CR003337]"
  assigned_class: "class 2"
- sequence_code: "UGAAUCCAAGUGUCCUCUGA (tested as dual guide RNA, chemistry not given here) [CR005303]"
  assigned_class: "class 1"
- sequence_code: "AAAUCUUACUGGAAGGCACU (tested as dual guide RNA, chemistry not given here) [CR005306]"
  assigned_class: "class 2"
- sequence_code: "AAUGGUGUAGCGGCGGGGGC (tested as dual guide RNA, chemistry not given here) [CR003375]"
  assigned_class: "class 1"
- sequence_code: "CUUCUCUACACCCAGGGCAC (tested as dual guide RNA, chemistry not given here) [CR003342]"
  assigned_class: "class 1"
- sequence_code: "AUGCAGCUCUCCAGACUCAC (tested as dual guide RNA, chemistry not given here) [CR003358]"
  assigned_class: "class 3"
- sequence_code: "GCAUGGGCUCACAACUGAGG (tested as dual guide RNA, chemistry not given here) [CR003362]"
  assigned_class: "class 1"
- sequence_code: "UGGACUGGUAUUUGUGUCUG (tested as dual guide RNA, chemistry not given here) [CR003340]"
  assigned_class: "class 3"
- sequence_code: "GUCACAGAAACACUCACCGU (tested as dual guide RNA, chemistry not given here) [CR005301]"
  assigned_class: "class 2"
- sequence_code: "AGGCAGUCCUGCCAUCAAUG (tested as dual guide RNA, chemistry not given here) [CR003348]"
  assigned_class: "class 3"
- sequence_code: "GGCCGUGCAUGUGUUCAGAA (tested as dual guide RNA, chemistry not given here) [CR005304]"
  assigned_class: "class 3"
- sequence_code: "GGCUGUCGUCACCAAUCCCA (tested as dual guide RNA, chemistry not given here) [CR003391]"
  assigned_class: "class 1"
- sequence_code: "CCCAGAGGCAAAUGGCUCCC (tested as dual guide RNA, chemistry not given here) [CR003355]"
  assigned_class: "class 2"
- sequence_code: "ACCUCUGCAUGCUCAUGGAA (tested as dual guide RNA, chemistry not given here) [CR003371]"
  assigned_class: "class 1"

====

Avg % Deletion values for the sequences below.
System: TTR
Assay: TTR editing in primary human hepatocytes electroporated with Spy Cas9 protein loaded with dgRNAs (Table 7)
Format: cell-based
Settings: dgRNA electroporated with Spy Cas9 protein (RNP)
readout_name: Avg % Deletion (%)

- sequence_code: "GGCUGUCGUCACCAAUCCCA (tested as dual guide RNA, chemistry not given here) [CR003391]"
  assay_target: "TTR"
  readout_name: "Avg % Deletion"
  endpoint_value: 0.27
- sequence_code: "GGGAUUGGUGACGACAGCCG (tested as dual guide RNA, chemistry not given here) [CR003390]"
  assay_target: "TTR"
  readout_name: "Avg % Deletion"
  endpoint_value: 0.23
- sequence_code: "ACGUGUCUUCUCUACACCCA (tested as dual guide RNA, chemistry not given here) [CR005302]"
  assay_target: "TTR"
  readout_name: "Avg % Deletion"
  endpoint_value: 1.00
- sequence_code: "GUAUUCACAGCCAACGACUC (tested as dual guide RNA, chemistry not given here) [CR003373]"
  assay_target: "TTR"
  readout_name: "Avg % Deletion"
  endpoint_value: 0.07
- sequence_code: "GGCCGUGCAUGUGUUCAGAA (tested as dual guide RNA, chemistry not given here) [CR005304]"
  assay_target: "TTR"
  readout_name: "Avg % Deletion"
  endpoint_value: 61.63
- sequence_code: "UUUGACCAUCAGAGGACACU (tested as dual guide RNA, chemistry not given here) [CR003344]"
  assay_target: "TTR"
  readout_name: "Avg % Deletion"
  endpoint_value: 6.10
- sequence_code: "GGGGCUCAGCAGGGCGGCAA (tested as dual guide RNA, chemistry not given here) [CR003381]"
  assay_target: "TTR"
  readout_name: "Avg % Deletion"
  endpoint_value: 0.50
- sequence_code: "AGCCGUGGUGGAAUAGGAGU (tested as dual guide RNA, chemistry not given here) [CR005299]"
  assay_target: "TTR"
  readout_name: "Avg % Deletion"
  endpoint_value: 0.35
- sequence_code: "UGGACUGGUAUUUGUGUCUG (tested as dual guide RNA, chemistry not given here) [CR003340]"
  assay_target: "TTR"
  readout_name: "Avg % Deletion"
  endpoint_value: 6.50
- sequence_code: "AGCCUUUCUGAACACAUGCA (tested as dual guide RNA, chemistry not given here) [CR003351]"
  assay_target: "TTR"
  readout_name: "Avg % Deletion"
  endpoint_value: 20.97
- sequence_code: "AUUGGUGACGACAGCCGUGG (tested as dual guide RNA, chemistry not given here) [CR003389]"
  assay_target: "TTR"
  readout_name: "Avg % Deletion"
  endpoint_value: 0.50
- sequence_code: "AAAUAGACACCAAAUCUUAC (tested as dual guide RNA, chemistry not given here) [CR003366]"
  assay_target: "TTR"
  readout_name: "Avg % Deletion"
  endpoint_value: 3.10
- sequence_code: "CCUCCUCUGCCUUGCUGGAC (tested as dual guide RNA, chemistry not given here) [CR003336]"
  assay_target: "TTR"
  readout_name: "Avg % Deletion"
  endpoint_value: 0.70
- sequence_code: "CUCUGCAUGCUCAUGGAAUG (tested as dual guide RNA, chemistry not given here) [CR003369]"
  assay_target: "TTR"
  readout_name: "Avg % Deletion"
  endpoint_value: 0.40
- sequence_code: "CCCCUACUCCUAUUCCACCA (tested as dual guide RNA, chemistry not given here) [CR003385]"
  assay_target: "TTR"
  readout_name: "Avg % Deletion"
  endpoint_value: 2.53
- sequence_code: "UCUAGAACUUUGACCAUCAG (tested as dual guide RNA, chemistry not given here) [CR003345]"
  assay_target: "TTR"
  readout_name: "Avg % Deletion"
  endpoint_value: 13.57
- sequence_code: "AGUCCCUCAUUCCUUGGGAU (tested as dual guide RNA, chemistry not given here) [CR003392]"
  assay_target: "TTR"
  readout_name: "Avg % Deletion"
  endpoint_value: 0.17
- sequence_code: "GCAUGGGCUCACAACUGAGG (tested as dual guide RNA, chemistry not given here) [CR003362]"
  assay_target: "TTR"
  readout_name: "Avg % Deletion"
  endpoint_value: 0.20
- sequence_code: "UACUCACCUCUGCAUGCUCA (tested as dual guide RNA, chemistry not given here) [CR003372]"
  assay_target: "TTR"
  readout_name: "Avg % Deletion"
  endpoint_value: 1.77

====

Tested on: TTR
Experiment: TTR editing in primary human hepatocytes electroporated with Spy Cas9 protein loaded with dgRNAs (Table 7)
Format: cell-based
Conditions: dgRNA electroporated with Spy Cas9 protein (RNP)
Mark Criterion met for reported Avg % Edit of 10% or greater; mark Criterion not met for anything smaller.

- sequence_code: "GCAGGGCGGCAAUGGUGUAG (tested as dual guide RNA, chemistry not given here) [CR003380]"
  assay_target: "TTR"
  assigned_class: "Criterion not met"
- sequence_code: "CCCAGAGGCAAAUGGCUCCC (tested as dual guide RNA, chemistry not given here) [CR003355]"
  assay_target: "TTR"
  assigned_class: "Criterion met"
- sequence_code: "ACCUGGGAGCCAUUUGCCUC (tested as dual guide RNA, chemistry not given here) [CR003354]"
  assay_target: "TTR"
  assigned_class: "Criterion not met"
- sequence_code: "AGACACCAAAUCUUACUGGA (tested as dual guide RNA, chemistry not given here) [CR003367]"
  assay_target: "TTR"
  assigned_class: "Criterion met"
- sequence_code: "GAAAGGCUGCUGAUGACACC (tested as dual guide RNA, chemistry not given here) [CR003352]"
  assay_target: "TTR"
  assigned_class: "Criterion met"
- sequence_code: "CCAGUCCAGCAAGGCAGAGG (tested as dual guide RNA, chemistry not given here) [CR003337]"
  assay_target: "TTR"
  assigned_class: "Criterion met"
- sequence_code: "UCACAGAAACACUCACCGUA (tested as dual guide RNA, chemistry not given here) [CR005300]"
  assay_target: "TTR"
  assigned_class: "Criterion met"
- sequence_code: "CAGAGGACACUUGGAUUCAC (tested as dual guide RNA, chemistry not given here) [CR003343]"
  assay_target: "TTR"
  assigned_class: "Criterion met"
- sequence_code: "UGCACGGCCACAUUGAUGGC (tested as dual guide RNA, chemistry not given here) [CR003349]"
  assay_target: "TTR"
  assigned_class: "Criterion not met"
- sequence_code: "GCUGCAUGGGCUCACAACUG (tested as dual guide RNA, chemistry not given here) [CR003361]"
  assay_target: "TTR"
  assigned_class: "Criterion not met"
- sequence_code: "ACACAAAUACCAGUCCAGCA (tested as dual guide RNA, chemistry not given here) [CR003339]"
  assay_target: "TTR"
  assigned_class: "Criterion met"
- sequence_code: "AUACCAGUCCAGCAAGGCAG (tested as dual guide RNA, chemistry not given here) [CR003338]"
  assay_target: "TTR"
  assigned_class: "Criterion met"
